# Tested on: Vero E6 cells
# Experiment Description: MTT cytotoxicity assay (CC50) in Vero E6 cells
# Assay type: cell-based, African green monkey
# Measurement Conditions: reference drug control
Endpoint: CC50
Please don't drop the unit; write it after the number.

Prompt: Consider the molecule shown here: CCC(CC)COC(=O)[C@H](C)N[P@](=O)(OC[C@H]1O[C@@](C#N)(c2ccc3c(N)ncnn23)[C@H](O)[C@@H]1O)Oc1ccccc1 What is its recorded CC50?
Completion: 473 µM
